# system: Collagen I
# Sequence (P02452 162-1218, chain 1 of 2): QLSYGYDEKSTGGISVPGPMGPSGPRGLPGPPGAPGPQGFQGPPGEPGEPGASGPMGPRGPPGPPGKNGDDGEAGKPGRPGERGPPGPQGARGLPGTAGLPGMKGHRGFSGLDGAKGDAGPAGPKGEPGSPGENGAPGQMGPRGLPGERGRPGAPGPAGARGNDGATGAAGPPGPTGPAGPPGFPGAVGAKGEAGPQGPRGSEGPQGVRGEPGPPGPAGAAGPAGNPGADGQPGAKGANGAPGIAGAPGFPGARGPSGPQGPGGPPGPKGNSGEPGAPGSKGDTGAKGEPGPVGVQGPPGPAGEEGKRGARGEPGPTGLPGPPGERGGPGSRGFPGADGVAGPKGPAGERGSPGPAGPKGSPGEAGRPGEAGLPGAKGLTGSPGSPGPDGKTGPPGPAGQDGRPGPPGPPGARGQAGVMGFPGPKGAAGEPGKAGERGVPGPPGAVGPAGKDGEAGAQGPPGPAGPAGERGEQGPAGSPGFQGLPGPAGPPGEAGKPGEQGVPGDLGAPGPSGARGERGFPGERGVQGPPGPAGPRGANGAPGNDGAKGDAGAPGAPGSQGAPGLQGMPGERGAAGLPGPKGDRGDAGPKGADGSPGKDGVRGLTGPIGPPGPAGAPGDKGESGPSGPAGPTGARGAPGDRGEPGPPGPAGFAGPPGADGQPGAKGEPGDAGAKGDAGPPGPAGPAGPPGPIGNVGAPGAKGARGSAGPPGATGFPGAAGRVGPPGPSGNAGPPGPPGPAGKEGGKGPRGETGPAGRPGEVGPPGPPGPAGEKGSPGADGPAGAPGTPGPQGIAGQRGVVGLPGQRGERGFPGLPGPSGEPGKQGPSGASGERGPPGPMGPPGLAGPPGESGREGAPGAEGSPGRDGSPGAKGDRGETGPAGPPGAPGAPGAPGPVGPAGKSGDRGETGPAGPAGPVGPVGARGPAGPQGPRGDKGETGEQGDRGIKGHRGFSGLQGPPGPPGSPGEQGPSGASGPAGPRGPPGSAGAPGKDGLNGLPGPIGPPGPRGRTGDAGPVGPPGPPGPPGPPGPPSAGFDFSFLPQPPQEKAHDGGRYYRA
# Sequence (P08123 80-1119, chain 2 of 2, further chain): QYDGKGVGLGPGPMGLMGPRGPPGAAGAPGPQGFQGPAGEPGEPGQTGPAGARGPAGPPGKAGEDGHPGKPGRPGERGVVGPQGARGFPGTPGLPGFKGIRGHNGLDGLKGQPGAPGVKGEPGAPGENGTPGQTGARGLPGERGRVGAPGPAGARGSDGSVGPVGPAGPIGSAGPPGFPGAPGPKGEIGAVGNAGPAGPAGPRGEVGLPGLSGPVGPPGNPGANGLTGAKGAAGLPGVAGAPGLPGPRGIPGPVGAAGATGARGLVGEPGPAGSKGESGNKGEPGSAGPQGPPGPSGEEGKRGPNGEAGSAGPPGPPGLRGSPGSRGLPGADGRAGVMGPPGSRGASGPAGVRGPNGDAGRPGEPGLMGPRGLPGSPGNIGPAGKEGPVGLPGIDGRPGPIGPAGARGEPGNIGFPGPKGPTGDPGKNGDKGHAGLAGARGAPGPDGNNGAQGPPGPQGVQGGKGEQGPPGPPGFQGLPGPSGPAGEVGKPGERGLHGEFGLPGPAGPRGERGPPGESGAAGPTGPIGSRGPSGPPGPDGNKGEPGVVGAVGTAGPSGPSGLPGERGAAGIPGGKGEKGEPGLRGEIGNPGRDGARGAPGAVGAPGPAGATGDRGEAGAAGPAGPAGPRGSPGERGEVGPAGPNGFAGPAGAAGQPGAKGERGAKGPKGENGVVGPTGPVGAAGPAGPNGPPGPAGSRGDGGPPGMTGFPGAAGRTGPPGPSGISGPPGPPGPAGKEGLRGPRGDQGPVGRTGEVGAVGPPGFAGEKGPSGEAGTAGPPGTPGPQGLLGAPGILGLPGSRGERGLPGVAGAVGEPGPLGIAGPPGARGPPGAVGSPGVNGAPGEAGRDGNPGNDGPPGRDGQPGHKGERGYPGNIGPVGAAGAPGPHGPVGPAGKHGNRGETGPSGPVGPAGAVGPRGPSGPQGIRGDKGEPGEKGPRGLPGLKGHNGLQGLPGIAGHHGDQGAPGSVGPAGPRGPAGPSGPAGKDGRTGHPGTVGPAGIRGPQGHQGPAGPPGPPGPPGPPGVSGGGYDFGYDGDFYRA
# run description: ELISA; cytokine coated, ECM protein 0.02 to 320 nM, KD by non-linear fit
value type: Kd (nM)

- binder: "human PDGF-BB-PlGF2123-144 (ligand) SLGSLTIAEPAMIAECKTRTEVFEISRRLIDRTNANFLVWPPCVEVQRCSGCCNNRNVQCRPTQVQLRPVQVRKIEIVRKKPIFKKATVTLEDHLACKCETVAAARPVTRRRPKGRGKRRREKQRPTDCHL"
  measurement units: "nM"
  value observed: 96.3
- binder: "human BMP-2-PlGF2123-144* (ligand, Inserted at the C-terminus of BMP-2) QAKHKQRKRLKSSCKRHPLYVDFSDVGWNDWIVAPPGYHAFYCHGECPFPLADHLNSTNHAIVQTLVNSVNSKIPKACCVPTELSAISMLYLDENEKVVLKNYQDMVVEGCGCRRRPKGRGKRRREKQRPTDSHL"
  measurement units: "nM"
  value observed: 102
- binder: "human VEGF-A121-PlGF2123-144 (ligand) APMAEGGGQNHHEVVKFMDVYQRSYCHPIETLVDIFQEYPDEIEYIFKPSCVPLMRCGGCCNDEGLECVPTEESNITMQIMRIKPHQGQHIGEMSFLQHNKCECRPKKDRARQERRRPKGRGKRRREKQRPTDCHLCDKPRR"
  measurement units: "nM"
  value observed: 124
- binder: "PlGF2 (ligand, also called PIGF-2; placenta growth factor 2) PAVPPQQWALSAGNGSSEVEVVPFQEVWGRSYCRALERLVDVVSEYPSEVEHMFSPSCVSLLRCTGCCGDENLHCVPVETANVTMQLLKIRSGDRPSYVELTFSQHVRCECRPLREKMKPERRRPKRGKRRREKQRPTDCHLCGDAVPRR"
  measurement units: "nM"
  value observed: 126
